Reference source: patent US12421249B2

Overview of recorded Emax for various compounds
Target: APOL1 G1 (Homo sapiens, UniProt O14791, I384M/S342G)
Sequence (O14791 28-398 S342G/I384M): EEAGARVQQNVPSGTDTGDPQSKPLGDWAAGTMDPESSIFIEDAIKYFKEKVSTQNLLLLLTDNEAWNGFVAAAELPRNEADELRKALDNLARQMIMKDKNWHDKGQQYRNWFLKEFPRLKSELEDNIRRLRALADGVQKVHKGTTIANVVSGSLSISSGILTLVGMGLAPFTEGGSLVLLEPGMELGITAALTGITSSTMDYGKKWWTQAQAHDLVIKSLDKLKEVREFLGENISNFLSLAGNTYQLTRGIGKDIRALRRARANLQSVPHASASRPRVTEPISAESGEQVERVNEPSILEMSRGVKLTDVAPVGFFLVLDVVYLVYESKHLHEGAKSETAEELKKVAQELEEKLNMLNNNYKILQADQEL
Experiment: Trypanosoma brucei brucei Lysis Assay Using APOL1 Recombinant Protein (AlamarBlue viability readout)
Type: cell-based
Conditions: Trypanosome Assay; read-out: Trypanosome Assay Max Activity (%)
From the text: Trypanosoma brucei brucei is a blood stream parasite to which human, gorillas, and baboons are immune due to the presence of the APOL1 protein in their HDL particles. […] Briefly, the AlamarBlue active compound, resazurin, a blue, water soluble, non-toxic and cell permeable molecule, which can be followed by absorbance, is reduced by various metabolic pathways into resorufin, a red compound which can be followed by either absorbance or fluorescence. […]
Number only, in %; omit the unit.

Q) Return the recorded Emax value; entry: COc1ccc([C@@H]2C[C@]3(C[C@H](C)N2)OCCc2cc(Cl)sc23)cc1C#N (racemic)
A) 95

Q) Return the recorded Emax value; entry: CC1CC2(CC(c3cn(C)cn3)N1)OCCc1cc(Cl)sc12 (racemic)
A) 129

Q) Return the recorded Emax value; entry: C[C@H]1C[C@@]2(C[C@@H](c3cccc(S(C)(=O)=O)c3)N1)OCCc1cc(Cl)sc12 (racemic)
A) 88

Q) Return the recorded Emax value; entry: C[C@H]1C[C@@]2(C[C@@H](c3ccc(O)nc3)N1)OCCc1cc(Cl)sc12 (racemic)
A) 106

Q) Return the recorded Emax value; entry: C[C@H]1C[C@@]2(C[C@@H](c3cn4c(n3)COCC4)N1)OCCc1cc(Cl)sc12 (racemic)
A) 110

Q) Return the recorded Emax value; entry: C[C@H]1CC2(CC(c3cn(C)cn3)N1)OCC(O)c1cc(Cl)sc12 (stereo in doubt)
A) 101

Next:
Q) Return the recorded Emax value; entry: C[C@@H]1CC2(C[C@H](C)N1)OCCc1cc(CC(F)F)sc12 (single isomer, unassigned)
A) 102

Q) Return the recorded Emax value; entry: C[C@H]1C[C@@]2(C[C@@H](c3cccc(NS(C)(=O)=O)c3)N1)OCCc1cc(Cl)sc12 (racemic)
A) 100

Q) Return the recorded Emax value; entry: CC1COC2(C[C@@H](c3cn(C)nn3)N[C@@H](C)C2)c2cc(C(F)(F)F)sc21 (stereo in doubt)
A) 102

Q) Return the recorded Emax value; entry: Cc1cc([C@@H]2C[C@]3(C[C@H](C)N2)OCCc2cc(Cl)sc23)no1 (racemic)
A) 109

Q) Return the recorded Emax value; entry: C[C@H]1C[C@@]2(C[C@@H](c3cn(C)c(=O)n(C)c3=O)N1)OCCc1cc(Cl)sc12 (racemic)
A) 104

Q) Return the recorded Emax value; entry: CC1CC2(CC(c3cn(CC4CC4)nn3)N1)OCCc1cc(Cl)sc12 (stereo not drawn)
A) 106

Q) Return the recorded Emax value; entry: C[C@H]1C[C@@]2(C[C@@H](c3cnn(CC(=O)N(C)C)c3)N1)OCCc1cc(Cl)sc12
A) 103

Q) Return the recorded Emax value; entry: C[C@H]1C[C@@]2(C[C@@H](c3ccc4cn[nH]c4c3)N1)OCCc1cc(Cl)sc12 (racemic)
A) 105

Q) Return the recorded Emax value; entry: Cc1nc([C@@H]2C[C@]3(C[C@H](C)N2)OCCc2cc(Cl)sc23)co1 (racemic)
A) 100

* * *

biological target: APOL1 G1 (Homo sapiens, UniProt O14791, I384M/S342G); test: MultiTox-Fluor Multiplex Cytotoxicity Assay in tet-inducible APOL1 G1 T-REx-HEK293 cells (clone G1 DC3.25); format: cell-based; set-up: expressed in transfected cells; host or cells: T-REx HEK293, pAAVS1-Puro-APOL1 G1, clone G1 DC3.25; conditions: Multi-Tox Assay; APOL1 variant cell line not given
RECORDED ENDPOINT: IC90

As a guide, the following entries are already answered.
Q) Return the recorded IC90 value; entry: CCOC(=O)C1CC1[C@@H]1C[C@]2(C[C@H](C)N1)OCCc1cc(Cl)sc12 (stereo in doubt) [Compound 374]
A) 50 to 500 nM

Q) Return the recorded IC90 value; entry: C[C@H](CO)Cn1cc([C@@H]2C[C@]3(C[C@H](C)N2)OCC(F)(F)c2cc(Cl)sc23)nn1
A) 50 to 500 nM

Q) Return the recorded IC90 value; entry: C[C@H]1C[C@@]2(C[C@@H](C3(N(C)C)CC3)N1)OCCc1cc(Cl)sc12 (racemic)
A) 50 to 500 nM

Q) Return the recorded IC90 value; entry: C[C@H]1C[C@@]2(C[C@@H](c3cn(C)nn3)N1)OC[C@@H](O)c1cc(C(F)(F)F)sc12
A) < 50 nM

Q) Return the recorded IC90 value; entry: CCOC(=O)C1CC1[C@@H]1C[C@]2(C[C@H](C)N1)OCCc1cc(Cl)sc12 (stereo in doubt) [Compound 375]
A) 50 to 500 nM

Q) Return the recorded IC90 value; entry: COCC1([C@@H]2C[C@]3(C[C@H](C)N2)OCCc2cc(Cl)sc23)CC1 (racemic)
A) 50 to 500 nM

For the next question, use this compound.
Q) Return the recorded IC90 value; entry: C[C@H]1C[C@@]2(C[C@@H](C3(C#N)CC3)N1)OCCc1cc(Cl)sc12 (racemic)
A) > 500 nM

* * *

biological target: APOL1 G1 (Homo sapiens, UniProt O14791, I384M/S342G); test: Trypanosoma brucei brucei Lysis Assay Using APOL1 Recombinant Protein (AlamarBlue viability readout); format: cell-based; settings: Trypanosome Assay; IP50 = IC50 for cell proliferation; read-out: Trypanosome Assay IP50
Overview of recorded IC50 for various compounds

As a guide, the following entries are already answered.
Q) Return the recorded IC50 value; entry: Cc1ccc([C@@H]2C[C@]3(C[C@H](C)N2)OCCc2cc(Cl)sc23)nn1 (racemic) [Compound 58]
A) < 50 nM

Q) Return the recorded IC50 value; entry: CC1CC2(CC(c3ccc4c(c3)OCC(=O)N4)N1)OCCc1cc(Cl)sc12 (stereo not drawn) [Compound 39]
A) < 50 nM

Q) Return the recorded IC50 value; entry: C[C@H]1CC2(CC(c3cnn(C)c3)N1)OCC(O)c1cc(Cl)sc12 (single isomer, unassigned) [Compound 175]
A) < 50 nM

Q) Return the recorded IC50 value; entry: COC(=O)[C@@H]1C[C@]2(C[C@H](C)N1)OCCc1cc(Cl)sc12 [Compound 209]
A) 50 to 500 nM

Q) Return the recorded IC50 value; entry: Cc1cc([C@@H]2C[C@]3(C[C@H](C)N2)OCCc2cc(Cl)sc23)ccn1 (racemic) [Compound 21]
A) < 50 nM

Next:
Q) Return the recorded IC50 value; entry: C[C@@H]1CC2(C[C@H](C)N1)OCCc1cc(C3CCCCC3)sc12 (single isomer, unassigned) [Compound 202]
A) > 500 nM

Q) Return the recorded IC50 value; entry: Cc1ncoc1[C@@H]1C[C@]2(C[C@H](C)N1)OCCc1cc(Cl)sc12 (racemic) [Compound 157]
A) > 500 nM

Q) Return the recorded IC50 value; entry: CC1CC2(CC(CO)N1)OCCc1cc(Cl)sc12 (mixture of isomers) [Compound 210]
A) > 500 nM

Q) Return the recorded IC50 value; entry: Cc1cc([C@@H]2C[C@]3(C[C@H](C)N2)OCCc2cc(Cl)sc23)ccc1O (racemic) [Compound 108]
A) < 50 nM

Q) Return the recorded IC50 value; entry: CC(C)c1c[nH]c([C@@H]2C[C@]3(C[C@H](C)N2)OCCc2cc(Cl)sc23)n1 (racemic) [Compound 162]
A) > 500 nM

Q) Return the recorded IC50 value; entry: C[C@H]1C[C@@]2(C[C@@H](c3cn(C)nn3)N1)OC[C@@H](O)c1cc(C(F)(F)F)sc12 [Compound 181]
A) < 50 nM

Q) Return the recorded IC50 value; entry: COc1ccnc([C@@H]2C[C@]3(C[C@H](C)N2)OCCc2cc(Cl)sc23)n1 (racemic) [Compound 145]
A) 50 to 500 nM

Q) Return the recorded IC50 value; entry: C[C@H]1C[C@@]2(C[C@@H](c3ccc(O)nc3)N1)OCCc1cc(Cl)sc12 (racemic) [Compound 68]
A) < 50 nM

Q) Return the recorded IC50 value; entry: Cc1noc2cc([C@@H]3C[C@]4(C[C@H](C)N3)OCCc3cc(Cl)sc34)ccc12 (racemic) [Compound 25]
A) < 50 nM

Q) Return the recorded IC50 value; entry: Cc1cccnc1[C@@H]1C[C@]2(C[C@H](C)N1)OCCc1cc(Cl)sc12 (racemic) [Compound 167]
A) > 500 nM

* * *

target: APOL1 (Homo sapiens, UniProt O14791); assay: Multi-Tox Assay (MultiTox-Fluor Multiplex Cytotoxicity Assay in tet-inducible APOL1 T-REx-HEK293 cells; Table 46 does not say which APOL1 variant G0/G1/G2); settings: IP50 = IC50 for cell proliferation, APOL1 variant not given
Sequence (O14791 whole entry S342G/I384M, form open): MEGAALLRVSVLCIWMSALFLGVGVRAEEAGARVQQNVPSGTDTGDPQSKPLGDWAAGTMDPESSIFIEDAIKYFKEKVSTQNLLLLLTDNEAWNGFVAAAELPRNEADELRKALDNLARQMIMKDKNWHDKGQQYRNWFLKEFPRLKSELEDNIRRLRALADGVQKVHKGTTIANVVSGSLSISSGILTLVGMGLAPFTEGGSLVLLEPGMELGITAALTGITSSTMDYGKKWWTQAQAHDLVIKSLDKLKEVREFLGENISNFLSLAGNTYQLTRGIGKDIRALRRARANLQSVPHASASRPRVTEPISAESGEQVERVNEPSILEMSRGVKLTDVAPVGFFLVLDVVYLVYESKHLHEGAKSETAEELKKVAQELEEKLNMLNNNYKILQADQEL
Overview of recorded IC50 for various molecules

Q) Return the recorded IC50 value; entry: C[C@H]1C[C@@]2(C[C@@H](c3ccc(O)nn3)N1)OCCc1cc(Cl)sc12 (stereo in doubt)
A) < 50 nM

Q) Return the recorded IC50 value; entry: Cc1nc([C@@H]2C[C@]3(C[C@H](C)N2)OCCc2cc(Cl)sc23)c[nH]1 (racemic)
A) > 500 nM

Q) Return the recorded IC50 value; entry: C[C@H]1C[C@@]2(C[C@@H](c3cnccc3O)N1)OCCc1cc(Cl)sc12 (racemic)
A) > 500 nM

Q) Return the recorded IC50 value; entry: CC1CC2(CC(c3cnn(-c4cccnc4)c3)N1)OCCc1cc(Cl)sc12 (stereo not shown)
A) < 50 nM

Q) Return the recorded IC50 value; entry: COc1ccc([C@@H]2C[C@]3(C[C@H](C)N2)OCCc2cc(Cl)sc23)cn1 (racemic)
A) < 50 nM

Q) Return the recorded IC50 value; entry: Cc1c(Cn2cc([C@@H]3C[C@]4(C[C@H](C)N3)OC[C@@H](O)c3cc(Cl)sc34)nn2)cnn1C
A) 50 to 500 nM

Next:
Q) Return the recorded IC50 value; entry: C[C@H]1C[C@@]2(C[C@@H](c3cnc(N4CCN(C)CC4)nc3)N1)OCCc1cc(Cl)sc12 (racemic)
A) 50 to 500 nM
